System: Escherichia coli K-12 MG1655
Assay: Bacterial growth in microscale cultivation, E. coli
Type: cell-based
Details: Escherichia coli, MG1655, minimal medium, 4 µM, relative to control; read-out: Growth rate
Description: The following bacteria were cultivated in the presence of trans-chalcone derived inhibitors: Corynebacterium glutamicum ATCC13032[43], Escherichia coli K-12 MG1655[44], Pseudomonas putida KT2440[45], and Bacillus subtilis 168[46]. The growth of these bacteria was monitored in flower-well plates shaken at 1200 rpm as backscatter at 620 nm (gain 20) using a BioLector® microscale cultivation system (m2p labs, Baesweiler, Germany). […]

molecule | activity at 4 µM / %
O=C(/C=C/c1ccc(O)c(O)c1)c1ccc(O)cc1O [Compound 8, 2′,4′,3,4-Tetrahydroxy-chalcone] | 86.4
O=C(/C=C/c1ccccc1O)c1ccc(O)cc1O [Compound 7, 2′,4′,2-Trihydroxychalcone] | 99.2
O=C(/C=C/c1ccccc1)c1ccc(O)cc1O [Compound 4, 2′,4′-Dihydroxychalcone] | 79
O=C(/C=C/c1ccc(O)cc1)c1ccccc1O [Compound 3, 2′,4-Dihydroxychalcone] | 106
O=C(/C=C/c1ccc(O)cc1)c1ccc(O)cc1O [Compound 6, 2′,4′,4-Trihydroxychalcone] | 101

* * *

Reported Lag Phase values for the following compounds.
System: Pseudomonas putida KT2440
Assay: Bacterial growth in microscale cultivation, P. putida
Assay type: cell-based
Details: complex medium, 40 µM, relative to control

compound | study system | Lag Phase
O=C(/C=C/c1ccc(O)cc1)c1ccccc1O [Compound 3, 2′,4-Dihydroxychalcone] | Pseudomonas putida KT2440 | 98,5%
O=C(/C=C/c1ccccc1O)c1ccc(O)cc1O [Compound 7, 2′,4′,2-Trihydroxychalcone] | Pseudomonas putida KT2440 | 100,0%
O=C(/C=C/c1ccc(O)cc1)c1ccc(O)cc1O [Compound 6, 2′,4′,4-Trihydroxychalcone] | Pseudomonas putida KT2440 | 101,7%
O=C(/C=C/c1ccc(O)c(O)c1)c1ccc(O)cc1O [Compound 8, 2′,4′,3,4-Tetrahydroxy-chalcone] | Pseudomonas putida KT2440 | 96,3%
O=C(/C=C/c1ccccc1)c1ccc(O)cc1O [Compound 4, 2′,4′-Dihydroxychalcone] | Pseudomonas putida KT2440 | 106,6%

* * *

Target: F. trinervia PEPC (Flaveria trinervia, UniProt P30694)
Construct: the full-length ppcA gene of PEPC from F. trinervia (EMBL-Bank X61304); made in house; host or cells: Escherichia coli BL21(DE3)
Sequence (P30694 whole entry): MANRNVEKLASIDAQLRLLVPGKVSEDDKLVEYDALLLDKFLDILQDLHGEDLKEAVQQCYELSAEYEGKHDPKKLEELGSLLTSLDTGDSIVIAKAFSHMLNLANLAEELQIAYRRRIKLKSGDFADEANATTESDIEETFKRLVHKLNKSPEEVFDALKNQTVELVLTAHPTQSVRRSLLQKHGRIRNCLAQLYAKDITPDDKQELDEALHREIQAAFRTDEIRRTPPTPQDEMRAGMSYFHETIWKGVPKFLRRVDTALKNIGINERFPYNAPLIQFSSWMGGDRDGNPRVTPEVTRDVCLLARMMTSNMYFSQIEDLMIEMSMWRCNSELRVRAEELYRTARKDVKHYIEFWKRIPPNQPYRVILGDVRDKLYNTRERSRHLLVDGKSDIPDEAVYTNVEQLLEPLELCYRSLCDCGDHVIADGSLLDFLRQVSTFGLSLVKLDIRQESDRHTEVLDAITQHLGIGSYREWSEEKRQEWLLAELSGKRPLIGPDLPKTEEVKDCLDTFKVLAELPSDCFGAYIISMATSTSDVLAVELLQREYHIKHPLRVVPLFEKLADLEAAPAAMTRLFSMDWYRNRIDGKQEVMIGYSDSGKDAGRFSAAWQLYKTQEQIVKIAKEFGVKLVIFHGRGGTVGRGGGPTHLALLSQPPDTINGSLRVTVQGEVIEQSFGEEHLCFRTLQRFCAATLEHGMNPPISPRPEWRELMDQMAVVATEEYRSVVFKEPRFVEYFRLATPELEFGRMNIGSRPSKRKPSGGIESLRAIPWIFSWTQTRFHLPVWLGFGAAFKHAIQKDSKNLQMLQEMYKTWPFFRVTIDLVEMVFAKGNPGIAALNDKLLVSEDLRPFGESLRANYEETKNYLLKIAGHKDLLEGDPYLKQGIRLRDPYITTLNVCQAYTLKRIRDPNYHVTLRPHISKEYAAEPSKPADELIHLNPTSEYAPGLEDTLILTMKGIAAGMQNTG
Experiment: biochemical
Type: biochemical
Settings: C4 PEPC; read-out: IC50 F. trinervia PEPC
pIC50: −log10 of the molar value.
Output T for pIC50 not less than 5; output F otherwise.

compound | answer label
O=C(/C=C/c1ccc(O)c(O)c1)c1ccc(O)cc1O [Compound 8, 2′,4′,3,4-Tetrahydroxy-chalcone] | T
O=C(/C=C/c1ccccc1O)c1ccc(O)cc1O [Compound 7, 2′,4′,2-Trihydroxychalcone] | F
O=C(/C=C/c1cc(O)c(O)c(O)c1)c1ccc(O)cc1O [Compound 9, 2′,4′,3,4,5-Pentahydroxychalcone] | T
O=C(/C=C/c1ccc(O)c(O)c1)c1c(O)cc(O)cc1O [Compound 11, 2′,4′,6′,3,4-Pentahydroxy-chalcone] | T
O=C(/C=C/c1ccccc1)c1ccc(O)cc1O [Compound 4, 2′,4′-Dihydroxychalcone] | F
O=C(/C=C/c1ccc(O)cc1)c1ccccc1O [Compound 3, 2′,4-Dihydroxychalcone] | F
O=C(/C=C/c1ccccc1)c1cc(O)ccc1O [Compound 5, 2′,5′-Dihydroxychalcone] | F
